Target: human MGL from HeLa cells (Homo sapiens (Human))
Sequence (Q99685 whole entry): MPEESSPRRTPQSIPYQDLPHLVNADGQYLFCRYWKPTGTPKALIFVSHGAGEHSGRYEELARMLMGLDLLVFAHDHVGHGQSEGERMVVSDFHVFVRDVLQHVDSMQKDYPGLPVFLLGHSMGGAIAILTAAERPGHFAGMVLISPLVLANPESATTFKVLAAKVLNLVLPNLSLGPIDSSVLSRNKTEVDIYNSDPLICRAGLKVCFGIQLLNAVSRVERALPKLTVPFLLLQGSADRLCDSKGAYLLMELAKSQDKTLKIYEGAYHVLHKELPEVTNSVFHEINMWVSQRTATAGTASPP
Assay: MGL in vitro activity assay ([glycerol-1,3-3H]-oleoyl glycerol hydrolysis, activated carbon filtration)
Settings: 300 nM [Glycerol-1,3-3H]-oleoyl glycerol, one hour
pIC50: −log10 of the molar value.
Observed property: pIC50

> print(dat)
                                    compound  observed.property  measured.value
 1  Cc1ccc(OC2CCC3(CC2)CN(C(=O)[C@H]2C[C@@](C)(O)C2)C3)cc1 [Example 404]              pIC50            7.28
 2  CC(C)c1cccc(C2(O)CCC3(CC2)CN(C(=O)[C@H]2C[C@@](C)(O)C2)C3)c1 [Example 151]              pIC50            8.34
 3  C[C@]1(O)C[C@@H](C(=O)N2CC3(CCC(c4ccc5c(c4)CCC5)C3)C2)C1 (mixture of isomers) [Example 16]              pIC50            8.00
 4  CC[C@]1(O)C[C@@H](C(=O)N2CC3(CCC(c4cccc(C(C)(C)C)c4)C3)C2)C1 (mixture of isomers) [Example 126]              pIC50            8.12
 5  Cn1ccc2ccc(C3CCC4(CC3)CN(C(=O)[C@H]3C[C@@](C)(O)C3)C4)nc21 [Example 384]              pIC50            7.01
 6  Cn1ncc2ccc(CC3CCC4(CC3)CN(C(=O)[C@H]3C[C@@](C)(O)C3)C4)nc21 [Example 403]              pIC50            6.35
 7  CC(C)c1ccc(C2CCC3(CC2)CN(C(=O)[C@H]2C[C@@](C)(O)C2)C3)cc1 [Example 130]              pIC50            7.77
 8  C[C@]1(O)C[C@@H](C(=O)N2CC3(CCC(c4cccc5ccnn45)CC3)C2)C1 [Example 389]              pIC50            7.00
 9  C[C@]1(O)C[C@@H](C(=O)N2CC3(CCC(Cc4cccc(C(F)(F)F)c4)C3)C2)C1 (mixture of isomers) [Example 176]              pIC50            7.96
10  Cc1ccc(F)c(OC2CCC3(CC2)CN(C(=O)[C@H]2C[C@@](C)(O)C2)C3)n1 [Example 431]              pIC50            7.01
11  Cc1ccc(C(F)(F)F)cc1C1CCC2(C1)CN(C(=O)[C@H]1C[C@@](C)(O)C1)C2 (mixture of isomers) [Example 78]              pIC50            7.96
12  C[C@]1(O)C[C@@H](C(=O)N2CC3(CC(Cc4ccncc4)C3)C2)C1 [Example 206]              pIC50            5.94
13  Cc1c(Cl)cccc1C1CCC2(C1)CN(C(=O)[C@H]1C[C@@](C)(O)C1)C2 (mixture of isomers) [Example 11]              pIC50            7.43
14  Cc1cc(CC2CC3(C2)CN(C(=O)[C@H]2C[C@@](C)(O)C2)C3)ccc1C(F)(F)F [Example 212]              pIC50            9.52
15  COc1cc(C)nc(C2CCC3(CC2)CN(C(=O)[C@H]2C[C@@](C)(O)C2)C3)c1 [Example 375]              pIC50            6.64
16  COC1(Cc2ccccc2)CC2(CN(C(=O)[C@H]3C[C@@](C)(O)C3)C2)C1 [Example 270]              pIC50            5.48
17  Cc1cccc(C2CCC3(CC2)CN(C(=O)[C@H]2C[C@@](C)(O)C2)C3)c1F [Example 355]              pIC50            7.41
18  C[C@]1(O)C[C@@H](C(=O)N2CC3(CC(c4ccc5cnccc5c4)C3)C2)C1 [Example 31]              pIC50            5.80
19  C[C@]1(O)C[C@@H](C(=O)N2CC3(CCC(c4ccc5c(c4)CCC5)CC3)C2)C1 [Example 127]              pIC50            7.85
20  COc1cccc(OC2CCC3(CC2)CN(C(=O)[C@H]2C[C@@](C)(O)C2)C3)c1C [Example 409]              pIC50            7.38
21  CC(C)n1cc2ccc(CC3CC4(C3)CN(C(=O)[C@H]3C[C@@](C)(O)C3)C4)cc2n1 [Example 308]              pIC50            6.93
22  C[C@]1(O)C[C@@H](C(=O)N2CC3(CCC(c4ccn(-c5ccccc5)n4)CC3)C2)C1 [Example 380]              pIC50            7.64
23  Cn1cc(C(F)(F)F)c2ccc(OC3CCC4(CC3)CN(C(=O)[C@H]3C[C@@](C)(O)C3)C4)nc21 [Example 476]              pIC50            8.85
24  Cc1ccc(C2CCC3(CC2)CN(C(=O)[C@H]2C[C@@](C)(O)C2)C3)cc1Cl [Example 22]              pIC50            7.92
25  Cc1ccc(CC2CC3(C2)CN(C(=O)[C@H]2C[C@@](C)(O)C2)C3)cc1C [Example 188]              pIC50            8.37
26  CC(C)(C)c1cccc(C2CCC3(CC2)CN(C(=O)[C@H]2C[C@@](C)(O)C2)C3)n1 [Example 116]              pIC50            8.36
27  CCC1(Oc2ccc(C(F)(F)F)cn2)CCC2(CC1)CN(C(=O)[C@H]1C[C@@](C)(O)C1)C2 [Example 420]              pIC50            7.48
28  C[C@]1(O)C[C@@H](C(=O)N2CC3(CCC(F)(c4ccccc4)CC3)C2)C1 [Example 340]              pIC50            6.54
29  CC(C)c1cccc(C2CCC3(C2)CN(C(=O)[C@H]2C[C@@](C)(O)C2)C3)c1 (mixture of isomers) [Example 46]              pIC50            7.89
30  CC(C)c1ccc(C2CC3(C2)CN(C(=O)[C@H]2C[C@@](C)(O)C2)C3)cc1 [Example 4]              pIC50            6.89
31  C[C@]1(O)C[C@@H](C(=O)N2CC3(CCC(Oc4cccc(OC(F)(F)F)c4)CC3)C2)C1 [Example 263]              pIC50            7.92
